Where do the numbers come from? From ChEMBL document CHEMBL1201862.

Test system: HOP-62
Assay: NCI tumour cell line growth inhibition, 48 h
Active and inactive are the calls of the source. Cut-off read from the data, not from the text of the source: active = GI50 up to about 1.1 µM and inactive = higher.
Exercise: for every item that follows, state its recorded GI50.

In the examples that follow, each entry is paired with its recorded GI50.
- CN1N=C(c2ccncc2)OC1c1ccc(C(F)(F)F)cc1 (stereo not given): 82.8 µM (inactive)
- COc1ccc(-c2cc(-c3cc4cc(Br)ccc4nc3Cl)c(C#N)c(N)n2)cc1: > 12.5 µM (inactive)
- COc1cc(C2SCC(=O)N2c2ccc(NC(=O)c3ccc(N4C(=O)CSC4c4cc(OC)c(OC)c(OC)c4)cc3)cc2)cc(OC)c1OC (stereo not given): 76.4 µM (inactive)
- CN(C)CCNC(=O)c1cccc(N(C)C(=O)c2ccccc2)c1[N+](=O)[O-]: > 100 µM (inactive)
- C=C1C(=O)O[C@@H]2C[C@]3(C)[C@@H](C[C@H]12)[C@](C)(O)CC[C@@H]3O: > 100 µM (inactive)

Please state GI50 for every compound in the list that follows.
1. C1CC[C@H]2SSC3CCCC[C@H]3SSC2C1 (stereo not given in full)
2. CC1(c2ccc(Cl)cc2)C2C(=O)NC(=O)C1C(=O)NC2=O (stereo not given)
3. N#CCCN(c1ccc(/C=C2\N=C(Cc3ccccc3)OC2=O)cc1)S(=O)(=O)c1ccccc1
4. COc1ccc(C2(CC(C)O)SCCCS2)cc1 (stereo not given)
5. CC(=O)N(O)[C@@H]1CC[C@H](n2cnc3c(N)ncnc32)C1

Result:
["> 100 µM (inactive)", "> 100 µM (inactive)", "> 100 µM (inactive)", "> 100 µM (inactive)", "> 100 µM (inactive)"]
